Where do these numbers come from? They come from PubChem BioAssay AID743245.

# system_under_test: ATP-dependent Clp protease proteolytic subunit (Bacillus subtilis (strain 168))
# test_description: qHTS Assay for Activators of ClpP: Hit Validation of Inhibitors; also: nearly all actives have a fitted effect of over 70% in size
# details: purified B. subtilis ClpP, FRET-FV substrate cleavage, 20 min; series mostly up to 57.5 µM
Some of the results follow. Results filed as inconclusive are left out. Activity calls are given as the source filed them. Calls follow the shape of the dose curve; as a rule, active = well fitted inhibition curve with a large enough effect; inconclusive = small, poorly fitted or top-dose-only effect; inactive = flat fitted curve, though single readings scatter.
Classes to choose from: active, inactive

| compound | qualitative_label |
| --- | --- |
| CCOC(=O)N1CCN(C(=O)c2ccc3nc4cc(Cl)ccc4c(=O)n3c2)CC1 | active |
| COc1ccccc1CNC(=O)c1ccccc1NC(=O)c1nsc2ccccc12 | active |
| COc1cc2[nH]c(=O)n(Cc3ccc(C(=O)NCc4ccc(C)cc4)cc3)c(=O)c2cc1OC | inactive |
| CCOc1ccc(-c2nnc(-c3ccco3)o2)cc1 | active |
| CCOc1ccc(-c2cc(C)n3nc(C(=O)Nc4ccc(C)c(C)c4)cc3n2)cc1 | inactive |

Short answer needed: outcome of this test for Fc1cc(F)c2nc(Nc3nc4c(F)cccc4s3)sc2c1 ?
active

Short answer needed: outcome of this test for Cc1cccc(-c2oc3ccc(-c4ccc5c(c4)OCO5)cc3c2C#Cc2cncn2C)c1 ?
active

Short answer needed: outcome of this test for CC(C)n1c(-c2cccs2)nc2ccccc21 ?
active

Short answer needed: outcome of this test for COc1ccccc1NC(=O)c1oc2ccccc2c1NC(=O)COc1ccccc1OC ?
active

Short answer needed: outcome of this test for O=C(Nc1ccc2oc(-c3ccc4ccccc4c3)nc2c1)c1cccs1 ?
active

Short answer needed: outcome of this test for COc1ccc(CCNC(=O)c2ccc3c(c2)sc2nc(-c4ccc(C)cc4)cn23)cc1OC ?
active
